- Target under test: Mitogen-activated protein kinase 10 (Homo sapiens, UniProt P53779)
- Sequence (P53779 whole entry): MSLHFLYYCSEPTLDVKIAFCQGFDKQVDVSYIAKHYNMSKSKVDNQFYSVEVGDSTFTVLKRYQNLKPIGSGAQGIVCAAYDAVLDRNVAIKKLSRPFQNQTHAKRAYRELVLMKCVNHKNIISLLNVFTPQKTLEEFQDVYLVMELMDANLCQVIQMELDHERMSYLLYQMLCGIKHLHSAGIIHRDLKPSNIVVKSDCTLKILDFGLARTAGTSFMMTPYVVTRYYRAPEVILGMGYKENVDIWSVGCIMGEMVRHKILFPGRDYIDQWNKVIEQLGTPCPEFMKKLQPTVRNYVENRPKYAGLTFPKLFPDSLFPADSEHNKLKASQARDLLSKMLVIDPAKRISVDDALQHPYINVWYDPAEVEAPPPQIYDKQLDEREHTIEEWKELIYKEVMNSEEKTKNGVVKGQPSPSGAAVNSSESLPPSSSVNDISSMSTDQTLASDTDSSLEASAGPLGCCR
- Run description: Inhibition of JNK3 using biotinylated ATF2 and ATP substrates by HTRF assay
Quantity: IC50

smiles_structure=COc1ccc(C(=O)Nc2cccc(C)c2N2CCC3(CC2)OCCO3)o1 reported_value="0.62 µM"
smiles_structure=C=CCN1CCN(c2c(Cl)cccc2NC(=O)c2cscn2)CC1 reported_value="2.3 µM"
smiles_structure=O=C(Nc1cccc(Cl)c1N1CCN(c2ccccn2)CC1)c1ccc(Br)o1 reported_value="1 µM"
smiles_structure=C=CCN1CCN(c2c(NC(=O)c3ccc(Br)o3)cccc2-c2ccccc2)CC1 reported_value="> 20 µM"
smiles_structure=C=CCN1CCN(c2c(Cl)cccc2NC(=O)c2ccc(C#N)cn2)CC1 reported_value="> 20 µM"

// each listed molecule needs a value for IC50
1. O=C(Nc1cccc(Cl)c1N1CCN(C(=O)C(F)(F)F)CC1)c1ccc(Br)o1
2. CC(C)(C)OC(=O)N1CCN(c2c(Cl)cccc2NC(=O)c2ccc(Br)o2)CC1
3. Cc1cccc(NC(=O)c2ccc(Nc3ccccc3)o2)c1N1CCC2(CC1)OCCO2

1. > 20 µM
2. > 20 µM
3. > 20 µM

// each listed molecule needs a value for IC50
1. O=C(Nc1cccc(Cl)c1N1CCNCC1)c1ccc(Br)o1
2. C=CCN1CCN(c2c(NC(=O)c3ccc(Br)o3)cccc2Nc2ccccc2)CC1
3. C=CCN1CCN(c2c(Cl)cccc2NC(=O)c2ncccn2)CC1
4. C=CCN1CCN(c2c(Br)cccc2NC(=O)c2ccc(Br)o2)CC1
5. C=CCN1CCN(c2c(NC(=O)c3ccc(Br)o3)cccc2C(F)(F)F)CC1

9.9 µM
> 20 µM
> 20 µM
> 20 µM
> 20 µM
